All values here come from the supplement of paper PMC11061612.

Test system: CAL-72 (Osteosarcoma)
Test: combination Emax (second highest fraction inhibited in the dose matrix, 72 h); higher = more inhibition; extreme values may be limits of the assay
READOUT_KIND: combination Emax
Number only, no unit.

Exam item: # return recorded combination Emax for input CCc1c2c(nc3ccc(O)cc13)-c1cc3c(c(=O)n1C2)COC(=O)[C@]3(O)CC [SN-38] + CN(C)CCCOc1ccc(-c2ccc3ncc4c(c3c2)n(C2CCOCC2)c(=O)n4C)cn1 [AZD0156] (first compound max 0.3 µM, 7x7, partner max 1 µM)
Marked response: 0.774

Exam item: Give reported combination Emax value for C[C@@H](c1ccc2nccn2c1)n1nnc2ncc(-c3cnn(C)c3)nc21 [Savolitinib] + CC1(C)CCC(CN2CCN(c3ccc(C(=O)NS(=O)(=O)c4ccc(NCC5CCOCC5)c([N+](=O)[O-])c4)c(Oc4cnc5[nH]ccc5c4)c3)CC2)=C(c2ccc(Cl)cc2)C1 [Venetoclax] (first compound max 1 µM, 7x7, partner max 1 µM)
Marked response: 0.181

Exam item: Given CN(CCO)CC[C@H](CSc1ccccc1)Nc1ccc(S(=O)(=O)NC(=O)c2ccc(N3CCC([C@@H](O)c4ccccc4-c4ccc(Cl)cc4)CC3)cc2)cc1S(=O)(=O)C(F)(F)F [AZD4320] + CN(C)CCCOc1ccc(-c2ccc3ncc4c(c3c2)n(C2CCOCC2)c(=O)n4C)cn1 [AZD0156] (first compound max 1 µM, 7x7, partner max 1 µM) , respond with its combination Emax.
Marked response: 0.332

====

Please go through the items and note down their combination Emax.
Test system: L-428 (Hodgkin's Lymphoma)
Assay: combination Emax (second highest fraction inhibited in the dose matrix, 72 h); higher = more inhibition; extreme values may be limits of the assay

Exam item: Give the observed combination Emax of Cn1cnc2c(F)c(Nc3ccc(Br)cc3Cl)c(C(=O)NOCCO)cc21 [Selumetinib] + C[C@@H]1COCCN1C2=NC(=NC(=C2)C3(CC3)[S@](=N)(=O)C)C4=C5C=CNC5=NC=C4 [AZD6738] (first compound max 10 µM, 7x7, partner max 10 µM) for L-428 (Hodgkin's Lymphoma).
Marked response: 0.69

Exam item: Identify measured combination Emax obtained with L-428 (Hodgkin's Lymphoma) for C=CCn1c(=O)c2cnc(Nc3ccc(N4CCN(C)CC4)cc3)nc2n1-c1cccc(C(C)(C)O)n1 [AZD1775] + C[C@@H]1COCCN1C2=NC(=NC(=C2)C3(CC3)[S@](=N)(=O)C)C4=C5C=CNC5=NC=C4 [AZD6738] (first compound max 1 µM, partner max 10 µM) .
Marked response: 0.891

Exam item: Under L-428 (Hodgkin's Lymphoma), report combination Emax for CN(C)CCCOc1ccc(-c2ccc3ncc4c(c3c2)n(C2CCOCC2)c(=O)n4C)cn1 [AZD0156] + C[C@@H]1COCCN1C2=NC(=NC(=C2)C3(CC3)[S@](=N)(=O)C)C4=C5C=CNC5=NC=C4 [AZD6738] (first compound max 1 µM, 7x7, partner max 10 µM)
Marked response: 0.777

Exam item: Would you please give the reported combination Emax of Cc1cc2ncnn2cc1Nc1ncc2c(n1)n(C1CCOCC1)c(=O)n2C [AZD7648] + C=CCn1c(=O)c2cnc(Nc3ccc(N4CCN(C)CC4)cc3)nc2n1-c1cccc(C(C)(C)O)n1 [AZD1775] (first compound max 10 µM, partner max 1 µM) with L-428 (Hodgkin's Lymphoma)?
Marked response: 0.884

====

System: SNU-449 (Hepatocellular Carcinoma)
Assay: combination Emax (second highest fraction inhibited in the dose matrix, 72 h); higher = more inhibition; extreme values may be limits of the assay
READOUT_KIND: combination Emax
Please respond with just the number, no unit label.

Exam item: Write down combination Emax measured for item C=CCn1c(=O)c2cnc(Nc3ccc(N4CCN(C)CC4)cc3)nc2n1-c1cccc(C(C)(C)O)n1 [AZD1775] + Nc1ccn([C@@H]2O[C@H](CO)[C@@H](O)C2(F)F)c(=O)n1 [Gemcitabine] (first compound max 1 µM, partner max 0.3 µM)
Marked response: 0.426

Exam item: Hello, please tell me recorded combination Emax for this one: Cc1c2c(nn1C)CSCc1cc(n(C)n1)CSc1cc(c3ccccc3c1)OCCCc1c(C(=O)O)n(C)c3c-2c(Cl)ccc13 [AZD5991] + Cn1cnc2c(F)c(Nc3ccc(Br)cc3Cl)c(C(=O)NOCCO)cc21 [Selumetinib] (first compound max 1 µM, 7x7, partner max 3 µM)
Marked response: 0.246

====

Test system: MPP-89 (Mesothelioma)
Assay: Bliss excess, mean over the matrix (fraction); higher = more synergy
Field: Bliss excess. Provide a value for each of the compounds that follow.
Respond numerically, and do not add a unit to the figure.

Exam item: Answer with reported Bliss excess of NC1(C(=O)N[C@@H](CCO)c2ccc(Cl)cc2)CCN(c2ncnc3[nH]ccc23)CC1 [Capivasertib] + CC(=O)c1c(C)c2cnc(Nc3ccc(N4CCNCC4)cn3)nc2n(C2CCCC2)c1=O [Palbociclib] (first compound max 10 µM, 7x7, partner max 10 µM)
Marked response: -0.0553

Exam item: Quickly give me recorded Bliss excess for Cc1c2c(nn1C)CSCc1cc(n(C)n1)CSc1cc(c3ccccc3c1)OCCCc1c(C(=O)O)n(C)c3c-2c(Cl)ccc13 [AZD5991] + C1CN(CCC1(C(=O)N[C@@H](CCO)C2=CC=C(C=C2)Cl)N)C3=NC=NC4=C3C=CN4 [Capivasertib] (first compound max 1 µM, 7x7, partner max 3 µM)
Marked response: 0.0003

Exam item: Return Bliss excess (reported value) for this compound: COc1nnc2ccc(N3CCC(c4ccc(OCCN5CCN(C)C(=O)[C@H]5C)cc4)CC3)nn12 [AZD5153] + C[C@@H]1COCCN1C2=NC(=NC(=C2)C3(CC3)[S@](=N)(=O)C)C4=C5C=CNC5=NC=C4 [AZD6738] (first compound max 1 µM, 7x7, partner max 10 µM)
Marked response: 0.0648

Exam item: State, in one line, measured Bliss excess of Cc1nc(-c2cn3c(n2)-c2ccc(-c4cnn(C(C)(C)C(N)=O)c4)cc2OCC3)n(C(C)C)n1 [Taselisib] + O=C(Nc1ccc2[nH]nc(-c3ccncc3)c2c1)[C@@H]1CCN(CC(=O)N2CCN(c3ccc(-c4ncccn4)cc3)CC2)C1 [SCH772984] (first compound max 10 µM, 7x7, partner max 5 µM)
Marked response: 0.0373

Exam item: Identify the reported Bliss excess for the following entry. COc1nnc2ccc(N3CCC(c4ccc(OCCN5CCN(C)C(=O)[C@H]5C)cc4)CC3)nn12 [AZD5153] + CCN(CCO)CCCOc1ccc2c(Nc3cc(CC(=O)Nc4cccc(F)c4)[nH]n3)ncnc2c1 [AZD2811] (first compound max 1 µM, 7x7, partner max 1 µM)
Marked response: -0.0396

Exam item: Given the compound CC1(C)CCC(CN2CCN(c3ccc(C(=O)NS(=O)(=O)c4ccc(NCC5CCOCC5)c([N+](=O)[O-])c4)c(Oc4cnc5[nH]ccc5c4)c3)CC2)=C(c2ccc(Cl)cc2)C1 [Venetoclax] + CN(C)CCCOc1ccc(-c2ccc3ncc4c(c3c2)n(C2CCOCC2)c(=O)n4C)cn1 [AZD0156] (first compound max 1 µM, 7x7, partner max 1 µM) , write its reported Bliss excess.
Marked response: -0.0182

Exam item: Hello, please tell me recorded Bliss excess for this one: CCc1c2c(nc3ccc(O)cc13)-c1cc3c(c(=O)n1C2)COC(=O)[C@]3(O)CC [SN-38] + CN(C)CCCOc1ccc(-c2ccc3ncc4c(c3c2)n(C2CCOCC2)c(=O)n4C)cn1 [AZD0156] (first compound max 0.3 µM, 7x7, partner max 1 µM)
Marked response: 0.0342

====

Tested on: ALL-PO (B-Lymphoblastic Leukemia)
Test: Bliss excess, mean over the matrix (fraction); higher = more synergy
Could you please report measured Bliss excess for the items listed next?
// print number alone

Exam item: Please list Bliss excess recorded for the compound CC1(C)CCC(CN2CCN(c3ccc(C(=O)NS(=O)(=O)c4ccc(NCC5CCOCC5)c([N+](=O)[O-])c4)c(Oc4cnc5[nH]ccc5c4)c3)CC2)=C(c2ccc(Cl)cc2)C1 [Venetoclax] + C=CCn1c(=O)c2cnc(Nc3ccc(N4CCN(C)CC4)cc3)nc2n1-c1cccc(C(C)(C)O)n1 [AZD1775] (first compound max 1 µM, partner max 1 µM)
Marked response: 0.136

Exam item: Supply recorded Bliss excess for COc1cccc2c1C(=O)c1c(O)c3c(c(O)c1C2=O)C[C@@](O)(C(=O)CO)C[C@@H]3O[C@H]1C[C@H](N)[C@H](O)[C@H](C)O1 [Doxorubicin] + Cc1cc2ncnn2cc1Nc1ncc2c(n1)n(C1CCOCC1)c(=O)n2C [AZD7648] (first compound max 1 µM, 7x7, partner max 10 µM) here.
Marked response: 0.143

Exam item: Could you please provide reported Bliss excess for CN(C)CCCOc1ccc(-c2ccc3ncc4c(c3c2)n(C2CCOCC2)c(=O)n4C)cn1 [AZD0156] + C[C@@H]1COCCN1C2=NC(=NC(=C2)C3(CC3)[S@](=N)(=O)C)C4=C5C=CNC5=NC=C4 [AZD6738] (first compound max 1 µM, 7x7, partner max 10 µM) ? Thanks!
Marked response: 0.0402
